Entry source: ChEMBL document CHEMBL2407030

Target: Neuronal acetylcholine receptor; alpha3/beta4 (Homo sapiens, UniProt P30926+P32297)
Assay: Agonist activity at human alpha3beta4 nACHR expressed in CHO cell membranes assessed as stimulation of calcium flux by FLIPR assay relative to control
Assay type: cell-based
Assignment: determine reported Emax for the given compounds.
The answer is to be given in %; state only the numeric part.

GET /values?readout=Emax&item= O=C([C@@H]1C[C@@H]1F)N1CC2CNCC2C1 (mixture of isomers)
88

GET /values?readout=Emax&item= "CNC(=O)[C@H]1C[C@@H]2CNC[C@@H](C2)C1"
5

GET /values?readout=Emax&item= O=C([C@H]1C[C@H]1F)N1CC2CNCC2C1 (mixture of isomers)
140

GET /values?readout=Emax&item= C[C@@H]1C[C@H]1C(=O)N1CC2CNCC(C2)C1 (mixture of isomers)
120

GET /values?readout=Emax&item= "CN1CCC[C@H]1c1cccnc1"
100

* * *

Target: Neuronal acetylcholine receptor; alpha4/beta2 (Homo sapiens, UniProt P17787+P43681)
Sequence (P17787 whole entry): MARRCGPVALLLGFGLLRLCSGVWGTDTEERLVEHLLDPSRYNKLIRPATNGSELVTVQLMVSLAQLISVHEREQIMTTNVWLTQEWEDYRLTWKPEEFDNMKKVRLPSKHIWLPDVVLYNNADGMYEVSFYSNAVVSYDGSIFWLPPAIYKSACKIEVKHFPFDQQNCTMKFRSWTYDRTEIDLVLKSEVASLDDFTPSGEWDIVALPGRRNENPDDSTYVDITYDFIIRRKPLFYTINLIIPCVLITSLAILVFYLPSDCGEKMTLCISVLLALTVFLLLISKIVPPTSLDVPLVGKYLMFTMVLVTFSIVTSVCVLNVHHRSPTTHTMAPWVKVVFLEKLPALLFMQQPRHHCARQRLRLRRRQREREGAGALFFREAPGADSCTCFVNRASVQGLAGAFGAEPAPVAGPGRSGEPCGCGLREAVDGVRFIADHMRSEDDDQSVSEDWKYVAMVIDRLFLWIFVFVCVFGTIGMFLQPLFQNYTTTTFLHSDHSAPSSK
Sequence (P43681 whole entry): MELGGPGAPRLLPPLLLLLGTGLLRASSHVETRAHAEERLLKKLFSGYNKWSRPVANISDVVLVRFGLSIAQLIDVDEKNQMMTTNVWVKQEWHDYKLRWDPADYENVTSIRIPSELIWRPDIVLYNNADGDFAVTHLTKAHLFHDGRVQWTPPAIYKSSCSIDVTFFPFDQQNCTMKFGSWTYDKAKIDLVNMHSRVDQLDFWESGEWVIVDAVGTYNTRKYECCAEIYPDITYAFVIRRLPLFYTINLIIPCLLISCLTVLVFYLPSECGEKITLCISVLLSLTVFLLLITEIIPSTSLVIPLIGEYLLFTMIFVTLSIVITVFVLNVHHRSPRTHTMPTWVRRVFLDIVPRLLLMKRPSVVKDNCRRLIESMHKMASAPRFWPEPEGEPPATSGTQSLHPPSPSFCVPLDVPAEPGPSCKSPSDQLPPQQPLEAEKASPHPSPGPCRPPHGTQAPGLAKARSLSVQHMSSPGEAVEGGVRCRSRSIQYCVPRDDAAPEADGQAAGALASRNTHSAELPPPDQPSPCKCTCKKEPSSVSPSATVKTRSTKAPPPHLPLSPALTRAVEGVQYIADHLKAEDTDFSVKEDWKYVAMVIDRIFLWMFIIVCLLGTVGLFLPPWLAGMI
Assay: Displacement of [3H]Nicotine from alpha4beta2 nACHR in human SHEP1 cell membranes after 2 hrs by liquid scintillation counting analysis
quantity.measured: Ki (nM)
The answer is to be given in nM; state only the numeric part.

Param readout = Ki; param system = Neuronal acetylcholine receptor; alpha4/beta2 (Homo sapiens, UniProt P17787+P43681); param query = O=C(C1CC1)[C@H]1C[C@H]2CNC[C@H]2C1 (mixture of isomers) ; response: value
0.5

Param readout = Ki; param system = Neuronal acetylcholine receptor; alpha4/beta2 (Homo sapiens, UniProt P17787+P43681); param query = C[C@H]1C[C@H]1C(=O)N1CC2CNCC2C1 (mixture of isomers) ; response: value
18

Param readout = Ki; param system = Neuronal acetylcholine receptor; alpha4/beta2 (Homo sapiens, UniProt P17787+P43681); param query = O=C([C@@H]1C[C@H]1F)N1CC2CNCC(C2)C1 (mixture of isomers) ; response: value
1

Param readout = Ki; param system = Neuronal acetylcholine receptor; alpha4/beta2 (Homo sapiens, UniProt P17787+P43681); param query = O=C([C@H]1C[C@H]1F)N1CC2CNCC2C1 (mixture of isomers) ; response: value
5

Param readout = Ki; param system = Neuronal acetylcholine receptor; alpha4/beta2 (Homo sapiens, UniProt P17787+P43681); param query = COC(=O)N1CC2CNCC(C2)C1 (mixture of isomers) ; response: value
20

Param readout = Ki; param system = Neuronal acetylcholine receptor; alpha4/beta2 (Homo sapiens, UniProt P17787+P43681); param query = "CC(C)NC(=O)[C@H]1C[C@@H]2CNC[C@@H](C2)C1" ; response: value
23

Param readout = Ki; param system = Neuronal acetylcholine receptor; alpha4/beta2 (Homo sapiens, UniProt P17787+P43681); param query = CC(=O)N1CC2CNCC2C1 (mixture of isomers) ; response: value
38

Param readout = Ki; param system = Neuronal acetylcholine receptor; alpha4/beta2 (Homo sapiens, UniProt P17787+P43681); param query = C[C@H]1C[C@@H]1C(=O)N1CC2CNCC2C1 (mixture of isomers) ; response: value
43

Param readout = Ki; param system = Neuronal acetylcholine receptor; alpha4/beta2 (Homo sapiens, UniProt P17787+P43681); param query = O=C([C@@H]1C[C@H]1F)N1CC2CNCC2C1 (mixture of isomers) ; response: value
9

Param readout = Ki; param system = Neuronal acetylcholine receptor; alpha4/beta2 (Homo sapiens, UniProt P17787+P43681); param query = C[C@@H]1C[C@H]1C(=O)N1CC2CNCC(C2)C1 (mixture of isomers) ; response: value
1

Param readout = Ki; param system = Neuronal acetylcholine receptor; alpha4/beta2 (Homo sapiens, UniProt P17787+P43681); param query = COC(=O)N1CC2CNCC2C1 (mixture of isomers) ; response: value
23

Param readout = Ki; param system = Neuronal acetylcholine receptor; alpha4/beta2 (Homo sapiens, UniProt P17787+P43681); param query = O=C([C@@H]1C[C@@H]1F)N1CC2CNCC(C2)C1 (mixture of isomers) ; response: value
5.2

Param readout = Ki; param system = Neuronal acetylcholine receptor; alpha4/beta2 (Homo sapiens, UniProt P17787+P43681); param query = "O=C(C1CC1)[C@H]1C[C@@H]2CNC[C@@H](C2)C1" ; response: value
43

Param readout = Ki; param system = Neuronal acetylcholine receptor; alpha4/beta2 (Homo sapiens, UniProt P17787+P43681); param query = CCC(=O)N1CC2CNCC2C1 (mixture of isomers) ; response: value
12

Param readout = Ki; param system = Neuronal acetylcholine receptor; alpha4/beta2 (Homo sapiens, UniProt P17787+P43681); param query = O=C([C@H]1C[C@H]1F)N1CC2CNCC(C2)C1 (mixture of isomers) ; response: value
1.4

Param readout = Ki; param system = Neuronal acetylcholine receptor; alpha4/beta2 (Homo sapiens, UniProt P17787+P43681); param query = "CCCNC(=O)[C@H]1C[C@@H]2CNC[C@@H](C2)C1" ; response: value
6

Param readout = Ki; param system = Neuronal acetylcholine receptor; alpha4/beta2 (Homo sapiens, UniProt P17787+P43681); param query = C[C@@H]1C[C@H]1C(=O)N1CC2CNCC2C1 (mixture of isomers) ; response: value
4

Param readout = Ki; param system = Neuronal acetylcholine receptor; alpha4/beta2 (Homo sapiens, UniProt P17787+P43681); param query = COC(=O)C1CC2CNCC(C2)C1 (mixture of isomers) ; response: value
2400

Param readout = Ki; param system = Neuronal acetylcholine receptor; alpha4/beta2 (Homo sapiens, UniProt P17787+P43681); param query = O=C([C@H]1C[C@@H]1F)N1CC2CNCC2C1 (mixture of isomers) ; response: value
30

Param readout = Ki; param system = Neuronal acetylcholine receptor; alpha4/beta2 (Homo sapiens, UniProt P17787+P43681); param query = O=C([C@@H]1C[C@@H]1F)N1CC2CNCC2C1 (mixture of isomers) ; response: value
17

Param readout = Ki; param system = Neuronal acetylcholine receptor; alpha4/beta2 (Homo sapiens, UniProt P17787+P43681); param query = CCC(=O)N1CC2CNCC(C2)C1 (mixture of isomers) ; response: value
8

* * *

Target: Neuronal acetylcholine receptor; alpha3/beta4 (Homo sapiens, UniProt P30926+P32297)
Assay: Agonist activity at human alpha3beta4 nACHR expressed in CHO cell membranes assessed as stimulation of calcium flux by FLIPR assay relative to control
Assay type: cell-based
Assignment: determine reported Emax for the given compounds.
Write your answer as a measured quantity: the number, then the unit.

GET /values?readout=Emax&item= C[C@@H]1C[C@@H]1C(=O)N1CC2CNCC(C2)C1 (mixture of isomers)
160%

GET /values?readout=Emax&item= O=C([C@H]1C[C@@H]1F)N1CC2CNCC(C2)C1 (mixture of isomers)
210%

GET /values?readout=Emax&item= CCC(=O)N1CC2CNCC2C1 (mixture of isomers)
130%

GET /values?readout=Emax&item= C[C@@H]1C[C@H]1C(=O)N1CC2CNCC2C1 (mixture of isomers)
110%

GET /values?readout=Emax&item= O=C([C@@H]1C[C@@H]1F)N1CC2CNCC(C2)C1 (mixture of isomers)
90%

GET /values?readout=Emax&item= O=C([C@H]1C[C@@H]1F)N1CC2CNCC2C1 (mixture of isomers)
90%

GET /values?readout=Emax&item= C[C@H]1C[C@@H]1C(=O)N1CC2CNCC2C1 (mixture of isomers)
26%

GET /values?readout=Emax&item= C[C@H]1C[C@H]1C(=O)N1CC2CNCC2C1 (mixture of isomers)
110%

GET /values?readout=Emax&item= O=C([C@H]1C[C@H]1F)N1CC2CNCC(C2)C1 (mixture of isomers)
130%

* * *

Biological target: Neuronal acetylcholine receptor; alpha4/beta2 (Homo sapiens, UniProt P17787+P43681)
Experiment: Displacement of [3H]Nicotine from alpha4beta2 nACHR in human SHEP1 cell membranes after 2 hrs by liquid scintillation counting analysis
Assignment: determine reported log10 Ki for the given compounds.
On a log10 scale: recorded Ki, unit nM.

Param readout = log10 Ki; param system = Neuronal acetylcholine receptor; alpha4/beta2 (Homo sapiens, UniProt P17787+P43681); param query = C[C@@H]1C[C@@H]1C(=O)N1CC2CNCC2C1 (mixture of isomers) ; response: value
0.00

Param readout = log10 Ki; param system = Neuronal acetylcholine receptor; alpha4/beta2 (Homo sapiens, UniProt P17787+P43681); param query = "O=C(c1ccco1)[C@H]1C[C@@H]2CNC[C@@H](C2)C1" ; response: value
2.04

Param readout = log10 Ki; param system = Neuronal acetylcholine receptor; alpha4/beta2 (Homo sapiens, UniProt P17787+P43681); param query = O=C([C@H]1C[C@@H]1F)N1CC2CNCC(C2)C1 (mixture of isomers) ; response: value
0.86

Param readout = log10 Ki; param system = Neuronal acetylcholine receptor; alpha4/beta2 (Homo sapiens, UniProt P17787+P43681); param query = C[C@H]1C[C@@H]1C(=O)N1CC2CNCC(C2)C1 (mixture of isomers) ; response: value
1.45

Param readout = log10 Ki; param system = Neuronal acetylcholine receptor; alpha4/beta2 (Homo sapiens, UniProt P17787+P43681); param query = COC(=O)[C@H]1C[C@H]2CNC[C@H]2C1 (mixture of isomers) ; response: value
0.90
